Tested on: HepG2
Experiment: cytotoxicity call (relative viability < 0.9)
Settings: 10 µM
The whole screen tested about 39,000 compounds, of which about 3,300 (8.5%) were called active. This is one part of a sample in which actives are shown more often than they occur.
recorded-endpoint: cytotoxicity call

Here are 4 molecules together with their reported answers.
{"columns": ["smiles-code", "recorded-endpoint", "data-value"],
 "data": [
  ["O=S(=O)(c1ccc(-n2cnnn2)cc1)N1CCNCC1", "cytotoxicity call", "inactive"],
  ["C[C@@H]1CN([C@@H](C)CO)C(=O)c2cc(NC(=O)CCCN(C)C)ccc2O[C@H]1CN(C)Cc1ccncc1", "cytotoxicity call", "inactive"],
  ["Cc1ccc(Oc2ccccc2)c(NC(=O)c2ccccc2)c1", "cytotoxicity call", "active"],
  ["CC(C)NC(=O)Nc1ccc2c(c1)C(=O)N([C@H](C)CO)C[C@H](C)[C@@H](CN(C)Cc1ccc(Oc3ccccc3)cc1)O2", "cytotoxicity call", "inactive"]
]}

Let us move to another entry and its cytotoxicity call.
Query: cytotoxicity call; subject: `CC(C)[Si]1(C(C)C)O[C@@H](c2ccccc2)c2cc(C3CC3)nc(-c3ccc(Oc4ccccc4)cc3)c21` inactive

----------
System: HepG2
Assay: cytotoxicity call (relative viability < 0.9)
Conditions: 10 µM
The whole screen tested about 39,000 compounds, of which about 3,300 (8.5%) were called active. What follows is part of a selection rich in actives, with near analogues and random picks from the rest.
Use one of these outcomes when replying: active, inactive

Name the outcome recorded for `CCOC(=O)N(C)C[C@H]1OCc2cn(nn2)CCCC(=O)N([C@H](C)CO)C[C@@H]1C` in the assay. inactive

Status in this test for `CC(C)NC(=O)N(C)C[C@H]1Oc2c(NC(=O)NC3CCCCC3)cccc2C(=O)N([C@@H](C)CO)C[C@H]1C` ? inactive

Tell me the assay call for `CCOc1ccc(Cc2nccc3cc(OCC)c(OCC)cc23)cc1OCC.Cl` please. active

State the result this test recorded for `C[C@@H]1CN([C@H](C)CO)C(=O)Cc2cc(NS(=O)(=O)c3cn(C)cn3)ccc2O[C@@H]1CN(C)C(=O)NC1CCCCC1` . inactive

Outcome? `COc1ccc(S(=O)(=O)N(C)C[C@@H]2Oc3c(NC(=O)Nc4c(C)noc4C)cccc3C(=O)N([C@H](C)CO)C[C@H]2C)cc1` inactive

Test call, this compound: `C[C@@H]1CN([C@@H](C)CO)C(=O)c2cccc(NC(=O)c3cnccn3)c2O[C@H]1CN(C)C(=O)Nc1ccc2c(c1)OCO2` inactive

How was `COc1cc2ccnc(CCCN)c2cc1OC` classified in this test? inactive

# lookup: test call for `C[C@H]1CN([C@@H](C)CO)C(=O)c2cc(NC(=O)C3CC3)ccc2O[C@H]1CN(C)Cc1ccc(-c2ccccc2)cc1` inactive

----------
Tested on: HepG2
Experiment: cytotoxicity call (relative viability < 0.9)
Settings: 10 µM
In all, about 39,000 compounds went through this assay and about 3,300 (8.5%) were called active. The sample holds actives, similar compounds and a random draw of the others, so the mix is not that of the screen.
recorded-endpoint: cytotoxicity call

{"columns": ["smiles-code", "assay-target", "cytotoxicity call"],
 "data": [
  ["C[C@@H]1CN([C@H](C)CO)C(=O)c2cc(NC(=O)Nc3ccc4c(c3)OCO4)ccc2O[C@H]1CN(C)Cc1ccc(-c2ccccc2)cc1", "HepG2", "active"],
  ["C[C@H](CO)N1C[C@H](C)[C@@H](CN(C)Cc2ccc(-c3ccccc3)cc2)Oc2ccc(NC(=O)Nc3ccc4c(c3)OCO4)cc2C1=O", "HepG2", "inactive"],
  ["C[C@@H]1CN([C@@H](C)CO)C(=O)c2cc(NC(=O)Nc3ccc4c(c3)OCO4)ccc2O[C@@H]1CN(C)Cc1ccc(-c2ccccc2)cc1", "HepG2", "active"],
  ["O=C(O[C@@H]1O[C@@H]2COC(=O)c3cc(O)c(O)c(O)c3-c3c(cc(O)c(O)c3O)C(=O)O[C@H]2[C@H](OC(=O)c2cc(O)c(O)c(O)c2)[C@H]1OC(=O)c1cc(O)c(O)c(O)c1)c1cc(O)c(O)c(O)c1", "HepG2", "active"],
  ["O=C(O[C@@H]1O[C@H]2COC(=O)c3cc(O)c(O)c(O)c3-c3c(cc(O)c(O)c3O)C(=O)O[C@@H]([C@H]1O)[C@@H]2OC(=O)c1cc(O)c(O)c(O)c1-c1c(C(=O)O)cc(O)c(O)c1O)c1cc(O)c(O)c(O)c1", "HepG2", "active"],
  ["C[C@@H]1CN([C@@H](C)CO)S(=O)(=O)c2ccc(C#CC3(O)CCCC3)cc2O[C@@H]1CN(C)C(=O)c1cccnc1", "HepG2", "inactive"],
  ["O=C(O[C@@H]1O[C@@H]2COC(=O)c3cc(Oc4c(C(=O)O)cc(O)c(O)c4O)c(O)c(O)c3-c3c(cc(O)c(O)c3O)C(=O)O[C@H]2[C@H](OC(=O)c2cc(O)c(O)c(O)c2)[C@H]1OC(=O)c1cc(O)c(O)c(O)c1)c1cc(O)c(O)c(O)c1", "HepG2", "inactive"],
  ["C[C@@H]1CN([C@H](C)CO)S(=O)(=O)c2ccc(C#CC3CCCC3)cc2O[C@H]1CN(C)Cc1cncnc1", "HepG2", "inactive"]
]}

Please look up its cytotoxicity call: `COc1ccc(S(=O)(=O)N(C)C[C@@H]2Oc3ncc(-c4ccccc4)cc3C(=O)N([C@H](C)CO)C[C@@H]2C)cc1` inactive

Could you share which cytotoxicity call value was measured for `C[C@H]1CN([C@@H](C)CO)C(=O)c2cc(NC(=O)Cc3cn(C)c4ccccc34)ccc2O[C@@H]1CN(C)Cc1ccc(C(=O)Nc2ccccc2N)cc1` ? inactive

Reference for the values: the antibiotic and cytotoxicity screens of Wong et al. (2023)
